Assay: Inhibition of chymotrypsin-like activity of rabbit 20S proteasome using Suc-LLVY-AMC substrate incubated at 37 degC by fluorometric assay
Set-up: species or system Oryctolagus cuniculus
Residues, ends and D or L forms follow the SMILES beside them. *: point of attachment. Cbz = O=C(OCc1ccccc1)*
Metric: Ki (nM)
Write down the numeric answer in nM and omit the unit.

Answered examples (2):
### Prompt Kindly indicate its recorded Ki. Item: COc1ccc(C[C@H](NC(=O)[C@H](Cc2ccccc2)NC(=O)OCc2ccccc2)C(=O)N[C@@H](Cc2ccccc2)C(=O)N[C@H](C=O)CC(C)C)cc1 (Cbz-FY(Me)FL-aldehyde)
### Response 28

### Prompt Kindly indicate its recorded Ki. Item: COc1ccc(C[C@@H]2NC(=O)[C@@H](NC(=O)OCc3ccccc3)Cc3ccc([N+](=O)[O-])c(c3)Oc3ccc(cc3)C[C@@H](C(=O)N[C@H](C=O)CC(C)C)NC2=O)cc1
### Response 54.5

In the following, a different compound is considered.
### Prompt Kindly indicate its recorded Ki. Item: CC(C)C[C@@H](C=O)NC(=O)[C@@H]1Cc2ccc(cc2)Oc2cc(ccc2[N+](=O)[O-])C[C@H](NC(=O)OCc2ccccc2)C(=O)N[C@@H](CC(C)C)C(=O)N1
### Response 241
